- condition.context: rat, in vivo, iv, 24 mg/kg
Where a SMILES comes first, the peptide text is derived from it. [ ]: non-standard residue; d: D form. dNle = CCCC[C@@H](N)C(=O)O; Ahx = NCCCCCC(=O)O
property.name: C0 (µg/mL)
Could you give me the number in µg/mL? Just the number is fine.

stdin: Which C0 is reported for this molecule? CCCC[C@@H](N)C(=O)N[C@@H](Cc1ccc(O)cc1)C(=O)N[C@H](C(=O)NCCCCCC(N)=O)[C@@H](C)CC (H-[dNle]YI[Ahx]-NH2)
stdout: 68.2

* * *

- target.or.test.system: human HGF (Homo sapiens, UniProt P14210)
- Construct: purchased R&D Systems (Minneapolis, Minn.)
- Sequence (P14210 32-728): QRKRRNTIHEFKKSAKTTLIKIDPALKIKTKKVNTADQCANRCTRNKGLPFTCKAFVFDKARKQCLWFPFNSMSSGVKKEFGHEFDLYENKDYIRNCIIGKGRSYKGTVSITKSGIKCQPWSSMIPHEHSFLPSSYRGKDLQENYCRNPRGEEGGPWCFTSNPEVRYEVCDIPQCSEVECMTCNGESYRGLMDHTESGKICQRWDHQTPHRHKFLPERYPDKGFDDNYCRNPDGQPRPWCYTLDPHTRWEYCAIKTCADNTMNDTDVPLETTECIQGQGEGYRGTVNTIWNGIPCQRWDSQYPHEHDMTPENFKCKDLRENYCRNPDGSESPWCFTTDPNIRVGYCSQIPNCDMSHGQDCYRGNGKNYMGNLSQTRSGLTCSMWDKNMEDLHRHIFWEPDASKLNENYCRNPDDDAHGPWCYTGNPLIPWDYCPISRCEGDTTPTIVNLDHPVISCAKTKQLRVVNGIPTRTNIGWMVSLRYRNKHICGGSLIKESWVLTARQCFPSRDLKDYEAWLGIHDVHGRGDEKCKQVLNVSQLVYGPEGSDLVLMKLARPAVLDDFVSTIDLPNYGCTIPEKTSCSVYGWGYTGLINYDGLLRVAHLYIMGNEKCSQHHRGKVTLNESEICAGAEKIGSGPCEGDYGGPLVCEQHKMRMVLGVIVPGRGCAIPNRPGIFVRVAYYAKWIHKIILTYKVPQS
- test: HGF binding, competition with 3H-Hinge
- condition.context: 1.25 ng HGF, 40 min at 37° C.; N=9
Where a SMILES comes first, the peptide text is derived from it. [ ]: non-standard residue; d: D form. dNle = CCCC[C@@H](N)C(=O)O; Ahx = NCCCCCC(=O)O
Below: a set of entries, each annotated with reported Ki.
Could you give me the number in nM? Just the number is fine.

Here is how some compounds turned out for Ki.
• CCCC[C@@H](N)C(=O)N[C@@H](CCSC)C(=O)N[C@H](C(=O)NCCCCCC(N)=O)[C@@H](C)CC [D-Nle-Met-Ile-NH—(CH2)5—CONH2] (H-[dNle]MI[Ahx]-NH2) = 138
• CCCC[C@@H](N)C(=O)N[C@@H](Cc1ccc(O)cc1)C(=O)N[C@H](C(=O)NCCCCCC(N)=O)[C@@H](C)CC (H-[dNle]YI[Ahx]-NH2) = 0.243
• CCCC[C@@H](N)C(=O)N[C@@H](Cc1c[nH]c2ccccc12)C(=O)N[C@H](C(=O)NCCCCCC(N)=O)[C@@H](C)CC [D-Nle-Trp-Ile-NH—(CH2)5—CONH2] (H-[dNle]WI[Ahx]-NH2) = 3.37

// below: Ki requested for another compound
stdin: Hi! What's the reported Ki for CCCC[C@@H](N)C(=O)N[C@@H](CS)C(=O)N[C@H](C(=O)NCCCCCC(N)=O)[C@@H](C)CC [D-Nle-Cys-Ile-NH—(CH2)5—CONH2] (H-[dNle]CI[Ahx]-NH2) on human HGF (Homo sapiens, UniProt P14210)?
stdout: 0.133

* * *

- condition.context: rat, in vivo, iv, 24 mg/kg
Where a SMILES comes first, the peptide text is derived from it. [ ]: non-standard residue; d: D form. dNle = CCCC[C@@H](N)C(=O)O; Ahx = NCCCCCC(=O)O
property.name: clearance (mL/min/kg)
Could you give me the number in mL/min/kg? Just the number is fine.

stdin: Which clearance is reported for this compound? CCCC[C@@H](N)C(=O)N[C@@H](Cc1ccc(O)cc1)C(=O)N[C@H](C(=O)NCCCCCC(N)=O)[C@@H](C)CC (H-[dNle]YI[Ahx]-NH2)
stdout: 58.3
